Values compiled from PubChem BioAssay (NCI).

# System: MDA-MB-468 breast
# TEST_DETAILS: NCI tumour cell line growth inhibition, 48 h
Would you mind telling me the reported TGI of each entry?
Numbers only, in µM.

For orientation, consider the following solved cases.
1. C=C1C(=O)O[C@H]2[C@H]1CC/C(Cn1cc(-c3ccccc3)nn1)=C\CC[C@@]1(C)O[C@@H]21 ... 1.97
2. CN(C)Cc1ccc(C(=O)Nc2ccc3ncnc(Nc4ccc(Oc5cccc(F)c5)c(Cl)c4)c3c2)cc1 ... 2.79
3. CC(NNC(=S)N1CCCCCC1)c1ccc2ccccc2n1 (stereo not drawn) ... 28.1
4. O=C1CCC2(C=C(Br)C(=O)C(Br)=C2)O1 ... 4.29
5. COc1ccc(/C=C\c2cc(OC)c(OC)c(OC)c2)cc1OCC(=O)Nc1nc2ccc(C(F)(F)F)cc2s1 ... 6.25

I would be grateful if you could provide TGI for each of the following entries.
1. CCOC(=O)Oc1c(OC)cc(C(=O)O[C@@H]2C[C@@H]3CN4CCc5c([nH]c6cc(OC)ccc56)[C@H]4C[C@@H]3[C@H](C(=O)OC)[C@H]2OC)cc1OC
2. Nc1nc(-c2cccc([N+](=O)[O-])c2)c(N=Nc2ccc(Br)cc2)s1
3. Cc1ccc2c(N)c(C(=O)N[C@H]3CCc4cc(N5CC6CCC(C5)N6)ccc4C3)sc2n1

Response:
1: 23.3; 2: 34.2; 3: 2.07

----------
# Test system: MDA-MB-468 breast
# TEST_DETAILS: NCI tumour cell line growth inhibition, 48 h
Would you mind telling me the reported GI50 of each entry?

For orientation, consider the following solved cases.
1. CCN(CC)CCCCCCCNc1c2ccc(Cl)cc2nc2ccc(OC)cc12 ... 1340 nM
2. Cc1cc2c(F)c(Oc3ncnn4cc(OC[C@@H](C)OC(=O)[C@H](C)N)c(C)c34)ccc2[nH]1 ... 9230 nM
3. Cc1nc2cccc(NCc3ccc(C(=O)NO)cc3)c2c(=O)n1-c1ccccc1 ... 1480 nM
4. COc1ccc(-c2nc(-c3ccccc3)c(-c3ccccc3)n2C2CC2)cc1OC1CCCC1 ... 66800 nM
5. S=C(Nc1ccc(Cl)cc1)Nc1ccc(Cl)cc1 (tested in a mixture with another compound) ... 1700 nM

Could you now look at the following molecule, please?
Request: I'd like to know its GI50. The molecule in question is "O=C(Nc1ccc(Cl)cc1)c1cc2ccccc2cc1O"
Response: 1610 nM

----------
Would you mind telling me the reported TGI of each entry?
# Test system: MDA-MB-468 breast
# TEST_DETAILS: NCI tumour cell line growth inhibition, 48 h

For orientation, consider the following solved cases.
1) Cc1[nH]c(/C=C2\C(=O)Nc3ccc(F)cc32)c(C)c1C(=O)NC[C@H](O)CN1CCOCC1 ... > 10 µM
2) COc1ccc(-c2nc(-c3cn(C)c4ncccc34)cs2)cc1 ... > 100 µM
3) N=C(N)CCCCCCCCC(=N)N ... > 100 µM
4) O=C(NC(=S)Nc1ccc(Cl)cc1)c1ccccc1 ... > 85.3 µM

Could you now look at the following compound, please?
Request: I'd like to know its TGI. The compound in question is "COC(=O)/C(=C\c1c(C)[nH]c2ccccc12)S(=O)(=O)c1ccccc1"
Response: > 100 µM
